Test system: SF-539 CNS
assayRemarks: NCI tumour cell line growth inhibition, 48 h
Parameter TGI: see the listing below.

compound: COc1cc2c(cc1OC)C(=O)N(c1ccc(OCCN3CCCC3)cc1)C2=O
studySystem: SF-539 CNS
TGI: > 100 µM
//
compound: CCOC(=O)c1cn(CC)c2ccc3c(c2c1=O)S(=O)(=O)C=C3
studySystem: SF-539 CNS
TGI: > 100 µM
//
compound: COC1OC(C(=O)O)C2OC(C)(C)OC12 (configuration not stated)
studySystem: SF-539 CNS
TGI: > 100 µM
//
compound: CCCCCCCCCCCCC1N=C(N)NC2(CCCO2)C1C(=O)OC (configuration not stated)
studySystem: SF-539 CNS
TGI: 15.8 µM
//
compound: COc1ccc(C23OCC(Cc4cc(OC)c(OC)cc42)C3CO)cc1OC (configuration not stated)
studySystem: SF-539 CNS
TGI: > 100 µM
//
compound: Cc1ccc(NC(=O)C(=O)Cc2cccc[n+]2[O-])cc1C
studySystem: SF-539 CNS
TGI: > 100 µM

Problem: Return value of TGI for input COC(=O)C(=O)C(C(=O)C(=O)Nc1ccc(C)c(C)c1)c1nc2ccc([N+](=O)[O-])cc2[nH]c1=O (configuration not stated) , no commentary.
Solution: > 100 µM

Problem: Tell me its TGI given COC(=O)c1ccccc1C1CN=NC12Cc1c(C)ccc(C)c1C2=O (configuration not stated) as the entry.
Solution: > 100 µM

Problem: For `C[n+]1c(-c2ccc(/C=N/NC(=O)C(=O)N/N=C/c3ccc(-c4cn5ccccc5[n+]4C)cc3)cc2)cn2ccccc21` , write its TGI.
Solution: > 100 µM

Problem: Give the measured TGI for `Fc1ccc(-c2nn3c(COc4ccc(Cl)cc4)nnc3s2)cc1Oc1ccccc1`
Solution: > 55.5 µM

Problem: Give reported TGI value for `COc1cc(OC)cc(-c2ccc(-c3ccc(C(=N)N)cn3)s2)c1`
Solution: 3.13 µM

Problem: Identify the reported TGI for the following entry. `COC(=O)c1ccc2[nH]c(O)c(C(=Nc3ccc(N(C)C(=O)CN4CCN(C)CC4)cc3)c3ccccc3)c2c1`
Solution: 1.72 µM

Data origin, for the record: PubChem BioAssay (NCI)
